The values you see were collected from ChEMBL document CHEMBL4513216.

# assay-summary: Toxicity liver stage against HepG2, at 10uM
# Format: cell-based
# Parameters: test concentration 10 uM, cell line HepG2-A16-CD81EGFP
# test-context: human, HepG2-A16-CD81EGFP cells; read-out: INHIBITION
result-type: cytotoxicity at 10 µM

As a guide, the following entries are already answered.
1) COc1cc(Cl)c(C)cc1NC(=O)CCNc1ccc(C#N)cn1 | 0.423%
2) Cc1nnc(NCc2ccc(Cl)cc2)o1 | 3.79%
3) CC(NC(N)=O)C(=O)NCc1ccc(Br)c(F)c1 (configuration not stated) | 7.97%
4) O=C(NCCn1ccnc1)c1ccn(-c2ccccc2F)n1 | 0.533%
5) O=C([C@H]1CC[C@@H]2[C@@H](CCN2Cc2nccs2)O1)N1CCCCO1 | 6.85%

Provide measured cytotoxicity at 10 µM value, entry: FC(F)(F)Cn1ccnc1CN1CCOC(Cn2cccn2)C1 (configuration not stated) 0.0962%

Provide measured cytotoxicity at 10 µM value, entry: `CC(C)c1cc(CN2CCNCC2)no1` -10.9%

Provide measured cytotoxicity at 10 µM value, entry: Cc1cnn(CC2CN(c3nc4ccccc4o3)CCO2)c1 (configuration not stated) -16.5%

Provide measured cytotoxicity at 10 µM value, entry: `Cc1ccccc1OC1CCN(CC(=O)Nc2cnn(C)c2C)CC1` -8.09%

Provide measured cytotoxicity at 10 µM value, entry: `Fc1cccc(-c2noc3c2CN(Cc2cncn2C2CC2)CC3)c1` -1.24%

Provide measured cytotoxicity at 10 µM value, entry: CS(=O)(=O)c1ccc(C(=O)N2CCCC(n3cncn3)C2)o1 (configuration not stated) 7.85%

Provide measured cytotoxicity at 10 µM value, entry: NC(=O)c1cc(C2CCCN(Cc3ccc4c(c3)OCCO4)C2)n[nH]1 (configuration not stated) -7%

Provide measured cytotoxicity at 10 µM value, entry: COCC1CC2(CCN(C(=O)c3cccn3C)CC2)CN1C(C)C (configuration not stated) -14.2%
